Values from the supplement of paper PMC10567573

B1: TOR1AIP2 (parent)
chain: DGAGRTWQDSDTVKLLVDLELSYG

Variants of: B1
procedure-details: protein stability index of a GFP-peptide fusion (GPS, HEK-293T) (PSI 1-6); higher = more stable;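 also: lentivirally expressed fusions sorted by FACS into six bins by GFP to DsRed ratio, PSI derived from sequencing read proportions per bin multiplied by bin number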
study-conditions: c terminus: a fixed tail appended
assay-metric: protein stability index
API note: the answer field is a bare number with no unit suffix.

For orientation, consider the following solved cases.
Problem: Look at this variant and give its reported protein stability index. DGAGRTWQDSDIVKLLVDLELSYG [T12I]
Result: 1.54

Problem: What about this variant? DGAGRTWQDSDTKKLLVDLELSYG [V13K]
Result: 2.18

Problem: Similarly, DGAGRTWQDSDTVKYLVDLELSYG [L15Y] ?
Result: 1.84

Problem: And the next one, DGAGRTWQDSDTVTLLVDLELSYG [K14T] ?
Result: 1.61

Problem: Entry DGAGRTWQDSDTVKLLVDLELSSG [Y23S] please
Result: 1.56

Problem: Next variant up: DGAGRTWQDSDTVKWLVDLELSYG [L15W]
Result: 2.07

Problem: Try the variant WGAGRTWQDSDTVKLLVDLELSYG [D1W]
Result: 2.93

Problem: Do the same for DGAGRTWQDSDTVKLSVDLELSYG [L16S] please
Result: 3.36

Others:
Problem: Fill in the blank: the reported protein stability index of DGAGRTWQDSDTVKLLVDYELSYG [L19Y] is ____.
Result: 3.19

Problem: How about DGAGRTWQRSDTVKLLVDLELSYG [D9R] ?
Result: 3.52

Problem: Entry to check: DGAGRSWQDSDTVKLLVDLELSYG [T6S]
Result: 2.96
